Consider the following molecules and their measured viability, T/C readings.
system: OVCAR-5 complex spheroids with HUVEC/MSC, viability, % test/control; test: Anticancer human tumor OVCAR-5 cell line growth inhibition [AhR]; details: second compound 0.316 µM; first compound 0.0316 µM; stronger effect = lower value;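 note: spheroids exposed to compounds for 7 days; 100% = DMSO vehicle control wells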
The reply should contain only the number, in %.

Example entries and their recorded answers appear below.
# molecule, measured.attribute, meas.value
records = [
    ("CC1COCCN1c1cc(-c2ccnn2C)c2ccnc(-c3ccn[nH]3)c2n1 (centres undefined) + Cc1cncc(-c2nc(NCCc3c[nH]c4ccccc34)c3ncn(C(C)C)c3n2)c1", "viability, T/C", 105),
    ("Nc1ccn(C2OC(CO)C(O)C2(F)F)c(=O)n1 (centres undefined) + Cc1cncc(-c2nc(NCCc3c[nH]c4ccccc34)c3ncn(C(C)C)c3n2)c1", "viability, T/C", 33.6),
    ("COc1cc(C2c3cc4c(cc3C(OC3OC5COC(C)OC5C(O)C3O)C3COC(=O)C23)OCO4)cc(OC)c1O (centres undefined) + Cc1cncc(-c2nc(NCCc3c[nH]c4ccccc34)c3ncn(C(C)C)c3n2)c1", "viability, T/C", 97.1),
    ("CC(C)c1c(-c2ccccc2)nc2c(C#N)c[nH]n2c1=O + CC(CO)NC(=O)c1cc(-c2ccc(Cl)cc2)nn(-c2cnn(C)c2)c1=O", "viability, T/C", 107),
    ("NS(=O)(=O)OCC1CC(n2ccc3c(NC4CCc5ccccc54)ncnc32)CC1O (centres undefined) + CC(CO)NC(=O)c1cc(-c2ccc(Cl)cc2)nn(-c2cnn(C)c2)c1=O", "viability, T/C", 79.5),
    ("Nc1ccccc1NC(=O)c1ccc(CNC(=O)OCc2cccnc2)cc1 + Cc1ccccc1N=Nc1ccc(NC(=O)c2ccnn2C)c(C)c1", "viability, T/C", 98.8),
    ("COc1cc(Nc2ncc3c(n2)-c2ccc(Cl)cc2C(c2c(F)cccc2OC)=NC3)ccc1C(=O)O + Cc1ccccc1N=Nc1ccc(NC(=O)c2ccnn2C)c(C)c1", "viability, T/C", 89.4),
    ("O=C(C=Cc1cccc(S(=O)(=O)Nc2ccccc2)c1)NO + Cc1ccccc1N=Nc1ccc(NC(=O)c2ccnn2C)c(C)c1", "viability, T/C", 101),
]

Ask: Which viability, T/C is listed for CC[C@@]1(O)C(=O)OCc2c1cc1n(c2=O)Cc2cc3c(CN(C)C)c(O)ccc3nc2-1 + CC(CO)NC(=O)c1cc(-c2ccc(Cl)cc2)nn(-c2cnn(C)c2)c1=O ?
Reply: 59

Ask: Moving on to the next molecule: COc1cccc2c1C(=O)c1c(O)c3c(c(O)c1C2=O)CC(O)(C(=O)CO)CC3OC1CC(N)C(O)C(C)O1 (centres undefined) + Cc1cncc(-c2nc(NCCc3c[nH]c4ccccc34)c3ncn(C(C)C)c3n2)c1
Reply: 61.8

Ask: Moving on to the next molecule: CC[C@@]1(O)C(=O)OCc2c1cc1n(c2=O)Cc2cc3c(CN(C)C)c(O)ccc3nc2-1 + Cc1cncc(-c2nc(NCCc3c[nH]c4ccccc34)c3ncn(C(C)C)c3n2)c1
Reply: 50

Ask: Moving on to the next molecule: O=C(C=Cc1cccc(S(=O)(=O)Nc2ccccc2)c1)NO + Cc1cncc(-c2nc(NCCc3c[nH]c4ccccc34)c3ncn(C(C)C)c3n2)c1
Reply: 95.1

Ask: Moving on to the next molecule: COc1cccc2c1C(=O)c1c(O)c3c(c(O)c1C2=O)CC(O)(C(=O)CO)CC3OC1CC(N)C(O)C(C)O1 (centres undefined) + CC(CO)NC(=O)c1cc(-c2ccc(Cl)cc2)nn(-c2cnn(C)c2)c1=O
Reply: 80

Ask: Moving on to the next molecule: NS(=O)(=O)OCC1CC(n2ccc3c(NC4CCc5ccccc54)ncnc32)CC1O (centres undefined) + Cc1cncc(-c2nc(NCCc3c[nH]c4ccccc34)c3ncn(C(C)C)c3n2)c1
Reply: 78

Ask: Moving on to the next molecule: Cn1ncnc1C1c2n[nH]c(=O)c3cc(F)cc(c23)NC1c1ccc(F)cc1 (centres undefined) + Cc1cncc(-c2nc(NCCc3c[nH]c4ccccc34)c3ncn(C(C)C)c3n2)c1
Reply: 99.4

Ask: Moving on to the next molecule: O=C(c1cc(Cc2n[nH]c(=O)c3ccccc23)ccc1F)N1CCN(C(=O)C2CC2)CC1 + CC(CO)NC(=O)c1cc(-c2ccc(Cl)cc2)nn(-c2cnn(C)c2)c1=O
Reply: 111
